assay: in vitro; format: cell-based, dog; settings: dog
Square brackets hold non-standard residues; d marks the D form. Peptide text beside a SMILES is read from it. N(1-naphthylmethyl)Gly = O=C(O)CNCc1cccc2ccccc12; Nphe = O=C(O)CNCc1ccccc1; NBuGly = CCCCNCC(=O)O
property-label: hemolysis at 1 h, 150 µM (%)
Answers are plain numbers, in %.

{"columns": ["molecule", "hemolysis at 1 h, 150 µM, %"],
 "data": [
  ["CC(C)C[C@@H](NC(=O)[C@H](CCCCN)NC(=O)[C@H](CCCCN)NC(=O)[C@@H](N)CCCCN)C(=O)N[C@H](Cc1ccc2ccccc2c1)C(=O)N[C@H](Cc1ccc(O)cc1)C(=O)N[C@H](Cc1ccc2ccccc2c1)C(N)=O [Compound 24] (HELM PEPTIDE1{K.K.K.[dL].[O=C([C@@H](Cc1ccc2ccccc2c1)N[*:1])[*:2]].[dY].[O=C([C@@H](Cc1ccc2ccccc2c1)N[*:1])[*:2]].[am]}$$$$V2.0)", 38.5],
  ["CC(C)C[C@@H](NC(=O)[C@H](CCCCN)NC(=O)[C@H](CCCCN)NC(=O)[C@@H](N)CCCCN)C(=O)N[C@H](Cc1cccc2ccccc12)C(=O)N[C@H](Cc1ccc(O)cc1)C(=O)N[C@H](Cc1cccc2ccccc12)C(N)=O [Compound 21] (HELM PEPTIDE1{K.K.K.[dL].[O=C([C@@H](Cc1cccc2ccccc12)N[*:1])[*:2]].[dY].[O=C([C@@H](Cc1cccc2ccccc12)N[*:1])[*:2]].[am]}$$$$V2.0)", 19.9]
]}

State recorded hemolysis at 1 h, 150 µM for all listed molecules.
1. CCCCN(CC(=O)N(CC(=O)N(CC(=O)N(CC(N)=O)Cc1cccc2ccccc12)Cc1ccccc1)Cc1cccc2ccccc12)C(=O)[C@H](CCCCN)NC(=O)[C@H](CCCCN)NC(=O)[C@@H](N)CCCCN [Compound 15] (H-KKK[NBuGly][N(1-naphthylmethyl)Gly][Nphe][N(1-naphthylmethyl)Gly]-NH2)
2. CC(C)C[C@@H](NC(=O)[C@H](CCCCN)NC(=O)[C@H](CCCCN)NC(=O)[C@@H](N)CCCCN)C(=O)N[C@H](Cc1cccc2ccccc12)C(=O)N[C@H](Cc1ccccc1)C(=O)N[C@H](Cc1cccc2ccccc12)C(N)=O [Compound 11] (HELM PEPTIDE1{K.K.K.[dL].[O=C([C@@H](Cc1cccc2ccccc12)N[*:1])[*:2]].[dF].[O=C([C@@H](Cc1cccc2ccccc12)N[*:1])[*:2]].[am]}$$$$V2.0)
3. CC(C)C[C@H](NC(=O)[C@H](CCCCN)NC(=O)[C@@H](N)CCCCN)C(=O)N[C@@H](CCCCN)C(=O)N[C@@H](Cc1cccc2ccccc12)C(=O)N[C@@H](Cc1ccccc1)C(=O)N[C@@H](Cc1cccc2ccccc12)C(N)=O [Compound 6] (HELM PEPTIDE1{K.K.L.K.[O=C([C@H](Cc1cccc2ccccc12)N[*:1])[*:2]].F.[O=C([C@H](Cc1cccc2ccccc12)N[*:1])[*:2]].[am]}$$$$V2.0; N-terminus assumed)
4. CC(C)C[C@H](NC(=O)[C@H](CCCCN)NC(=O)[C@H](CCCCN)NC(=O)[C@@H](N)CCCCN)C(=O)N[C@@H](Cc1cccc2ccccc12)C(=O)N[C@@H](Cc1ccc(O)cc1)C(=O)N[C@@H](Cc1cccc2ccccc12)C(N)=O [Compound 19, Lys-Lys-Lys-Leu(1-Nal)Ala-Tyr-(1-Nal)Ala] (HELM PEPTIDE1{K.K.K.L.[O=C([C@H](Cc1cccc2ccccc12)N[*:1])[*:2]].Y.[O=C([C@H](Cc1cccc2ccccc12)N[*:1])[*:2]].[am]}$$$$V2.0)

1: 87.1; 2: 40.7; 3: 101; 4: 101
